Below, each of the compounds is paired with its reported Activity value.
Assay: Statistical significance of IC 50 values; Expressed as R value
Assay type: ADME
I'd appreciate a reply containing only the number, no unit.

CCCCCCCCCCCC[C@@H](O)[C@H]1CC[C@H]([C@H](O)CCCC[C@H](O)CCCCC[C@@H](O)CC2=C[C@H](C)OC2=O)O1 ... 0.99
CCCCC[C@H](O)CCCC[C@H](O)[C@H]1CC[C@H]([C@H]2CC[C@H]([C@H](O)CCCCCCCCCCCCC3=C[C@H](C)OC3=O)O2)O1 ... 0.99
CC[C@]1(O)C[C@H]2CN(CCc3c([nH]c4ccccc34)[C@@](C(=O)OC)(c3cc4c(cc3OC)N(C=O)[C@H]3[C@@](O)(C(=O)OC)[C@H](OC(C)=O)[C@]5(CC)C=CCN6CC[C@]43[C@@H]65)C2)C1 ... 1

Which Activity value is on record for COc1cccc2c1C(=O)c1c(O)c3c(c(O)c1C2=O)C[C@@](O)(C(=O)CO)C[C@@H]3O[C@H]1C[C@H](N)[C@H](O)[C@H](C)O1 ?
1

And CCCCCCCCCC[C@H](O)[C@H]1CC[C@H]([C@H](O)CC[C@H](O)[C@@H]2CC[C@@H](CCCCCCC[C@@H](O)CC3=C[C@H](C)OC3=O)O2)O1 ?
0.98

Origin of values: ChEMBL document CHEMBL1130080
